Data credit: patent US7335756B2

# IC50 per record follows
# SYSTEM_TESTED: P450RAI-3 (Homo sapiens, UniProt Q6V0L0, F447L)
# PROCEDURE_SUMMARY: [3H]-RA-metabolism inhibition (substrate competition) in P450RAI-3 stable transfected Hela cells
# Assay type: cell-based
# Parameters: expressed in transfected cells
# MEASUREMENT_SETUP: 2 nM [3H]-RA, read-out: ID50, competition for P450RAI-3 [3H]-RA metabolism
Express the result in µM but write the number alone.

> print(dat)
                                   compound  display.unit  reading
1  CC1=C(/C=C/C(C)=C/C=C/C(C)=C/C(=O)O)C(C)(C)CCC1 [ATRA, all-trans-retinoic-acid]            µM      0.3

Proceed to the following item.
Task: Return reported IC50; argument: CC(=O)N1CCN(c2ccc(OCC3COC(Cn4ccnc4)(c4ccc(Cl)cc4Cl)O3)cc2)CC1 (centres unmarked)
Result: 70

* * *

# SYSTEM_TESTED: P450RAI-3 (Homo sapiens, UniProt Q6V0L0, F447L)
# PROCEDURE_SUMMARY: ATRA and 9-cis-RA binding assay, Sf9-Bac-P450RAI-3 insect microsomes
# MEASUREMENT_SETUP: read-out: Kd, substrate binding to P450RAI-3; insect microsomes; Table 4 prints no unit, nM
PARAMETER: Kd (nM)
Express the result in nM but write the number alone.

Task: Return reported Kd; argument: CC1=C(/C=C/C(C)=C\C=C\C(C)=C\C(=O)O)C(C)(C)CCC1 [9-cis-RA, 9-cis-retnoic acid]
Result: 69

* * *

# SYSTEM_TESTED: P450RAI-3 (Homo sapiens, UniProt Q6V0L0, F447L)
# PROCEDURE_SUMMARY: [3H]-RA-metabolism inhibition in Sf9-Bac-P450RAI-3 insect microsomes
# Format: biochemical
# MEASUREMENT_SETUP: 2 nM [3H]-RA, NADPH, 1 hour, read-out: ID50 (nM) Sf9-P450RAI-3
PARAMETER: IC50 (nM)
Express the result in nM but write the number alone.

Task: Value wanted: IC50 (P450RAI-3 (Homo sapiens, UniProt Q6V0L0, F447L)) of entry CC1=C(/C=C/C(C)=C/C=C/C(C)=C/C(=O)O)C(C)(C)CCC1 [ATRA, all-trans-retinoic-acid]
Result: 20

* * *

# SYSTEM_TESTED: P450RAI-3 (Homo sapiens, UniProt Q6V0L0, F447L)
# Sequence (Q6V0L0 1-522 F447L): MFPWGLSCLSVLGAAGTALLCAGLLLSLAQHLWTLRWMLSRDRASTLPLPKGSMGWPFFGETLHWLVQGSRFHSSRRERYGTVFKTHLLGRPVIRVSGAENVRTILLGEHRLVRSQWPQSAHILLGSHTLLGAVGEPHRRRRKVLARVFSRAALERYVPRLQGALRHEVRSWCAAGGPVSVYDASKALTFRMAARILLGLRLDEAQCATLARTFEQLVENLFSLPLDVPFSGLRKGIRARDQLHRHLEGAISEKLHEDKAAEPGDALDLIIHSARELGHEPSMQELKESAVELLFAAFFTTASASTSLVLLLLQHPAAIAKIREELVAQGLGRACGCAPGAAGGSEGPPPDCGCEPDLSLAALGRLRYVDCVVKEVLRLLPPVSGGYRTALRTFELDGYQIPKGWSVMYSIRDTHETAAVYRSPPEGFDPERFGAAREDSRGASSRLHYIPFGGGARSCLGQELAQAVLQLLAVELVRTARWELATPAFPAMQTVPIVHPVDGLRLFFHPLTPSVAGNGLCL
# PROCEDURE_SUMMARY: [3H]-RA-metabolism inhibition in mammalian microsomes from transient P450RAI-3-transfected Cos cells
# Assay type: biochemical
# Parameters: expressed in transfected cells; host or cells: COS-1 (transient, pcDNA-P450RAI-3, Fugene)
# MEASUREMENT_SETUP: read-out: ID50 (nM) P450RAI-3
# Procedure: RA-metabolism activity was assessed using RA-metabolism microsomes-based assay and Bligh Dyer extraction as follows: Using an automatic repeating-pipette, gently thawed and homogenized microsomes were plated in a 48-well plate in final volume of 150 μl of storage buffer containing 0.5 mg/ml BSA. At indicated concentration 2 μl of compound solution was added to the assay and 2 μl of DMSO was added to MS control (quadruplet) and No-MS control. […]
PARAMETER: IC50

> print(dat)
                                   molecule  reading
1  CC1=C(/C=C/C(C)=C/C=C/C(C)=C/C(=O)O)C(C)(C)CCC1 [ATRA, all-trans-retinoic-acid]    20 nM

Task: Return reported IC50; argument: CC(=O)N1CCN(c2ccc(OCC3COC(Cn4ccnc4)(c4ccc(Cl)cc4Cl)O3)cc2)CC1 (centres unmarked)
Result: 72000 nM

* * *

# SYSTEM_TESTED: P450RAI-3 (Homo sapiens, UniProt Q6V0L0, F447L)
# PROCEDURE_SUMMARY: [3H]-RA-metabolism inhibition in mammalian microsomes from transient P450RAI-3-transfected Cos cells
# Assay type: biochemical
# Set-up: expressed in transfected cells; host or cells: COS-1 (transient, pcDNA-P450RAI-3, Fugene)
# MEASUREMENT_SETUP: read-out: ID50 P450RAI-3
PARAMETER: IC50 (µM)
Express the result in µM but write the number alone.

Task: Return reported IC50; argument: CC(=O)N1CCN(c2ccc(OCC3COC(Cn4ccnc4)(c4ccc(Cl)cc4Cl)O3)cc2)CC1 (stereo not shown) [Ketoconazole, ketoconazole]
Result: 70
